Provenance of the data: ChEMBL document CHEMBL3352267

Entries annotated with measured pEC50
Target: Apelin receptor (Homo sapiens, UniProt P35414)
Sequence (P35414 whole entry): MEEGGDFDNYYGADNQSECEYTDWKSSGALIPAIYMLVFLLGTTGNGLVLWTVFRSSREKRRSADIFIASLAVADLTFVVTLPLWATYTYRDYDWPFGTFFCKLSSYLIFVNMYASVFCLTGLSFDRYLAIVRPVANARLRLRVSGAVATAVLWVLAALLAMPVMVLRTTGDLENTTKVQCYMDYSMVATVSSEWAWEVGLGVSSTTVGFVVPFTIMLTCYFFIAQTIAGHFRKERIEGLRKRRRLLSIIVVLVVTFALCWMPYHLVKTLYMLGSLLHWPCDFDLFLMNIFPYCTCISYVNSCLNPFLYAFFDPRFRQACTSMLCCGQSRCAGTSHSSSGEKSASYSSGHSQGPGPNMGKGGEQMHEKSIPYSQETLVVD
Test: Agonist activity at APJ receptor in HEK293 cells assessed as inhibition of forskolin-induced cAMP level incubated for 5 mins prior to forskolin challenge measured after 30 mins by TR-FRET assay
pEC50: −log10 of the molar value. Residues, ends and D or L forms follow the SMILES beside them. *: point of attachment. Palmitoyl = CCCCCCCCCCCCCCCC(=O)*
REPORTED_ENDPOINT: pEC50

1) CCCCCCCCCCCCCCCC(=O)N[C@H](C(=O)N[C@H](C(=O)N[C@@H](C)C(=O)N1CCC[C@H]1C(=O)N[C@@H](CC(C)C)C(=O)N[C@@H](Cc1c[nH]c2ccccc12)C(=O)N[C@@H](C)C(=O)N[C@H](C(=O)N[C@@H](Cc1ccc(O)cc1)C(=O)N[C@H](C(=O)N[C@@H](Cc1ccc(O)cc1)C(=O)N[C@@H](CCCNC(=N)N)C(N)=O)[C@@H](C)O)[C@@H](C)O)[C@@H](C)O)C(C)C (Palmitoyl-VTAPLWATYTYR-NH2); < 4.52
2) CCCCCCCCCCCCCCCC(=O)N1CCC[C@H]1C(=O)N[C@@H](CC(C)C)C(=O)N[C@@H](Cc1c[nH]c2ccccc12)C(=O)N[C@@H](C)C(=O)N[C@H](C(=O)N[C@@H](Cc1ccc(O)cc1)C(=O)N[C@H](C(=O)N[C@@H](Cc1ccc(O)cc1)C(=O)N[C@@H](CCCNC(=N)N)C(N)=O)[C@@H](C)O)[C@@H](C)O (Palmitoyl-PLWATYTYR-NH2); < 4.52
3) CCCCCCCCCCCCCCCC(=O)N[C@H](C(=O)N[C@H](C(=O)N[C@@H](CC(C)C)C(=O)N1CCC[C@H]1C(=O)N[C@@H](CC(C)C)C(=O)N[C@@H](Cc1c[nH]c2ccccc12)C(=O)N[C@@H](C)C(=O)N[C@H](C(=O)N[C@@H](Cc1ccc(O)cc1)C(=O)N[C@H](C(=O)N[C@@H](C)C(=O)N[C@@H](CCCNC(=N)N)C(N)=O)[C@@H](C)O)[C@@H](C)O)[C@@H](C)O)C(C)C (Palmitoyl-VTLPLWATYTAR-NH2); 8.57
4) CCCCCCCCCCCCCCCC(=O)N[C@H](C(=O)N[C@H](C(=O)N[C@@H](CC(C)C)C(=O)N1CCC[C@H]1C(=O)N[C@@H](CC(C)C)C(=O)N[C@@H](C)C(=O)N[C@@H](C)C(=O)N[C@H](C(=O)N[C@@H](Cc1ccc(O)cc1)C(=O)N[C@H](C(=O)N[C@@H](Cc1ccc(O)cc1)C(=O)N[C@@H](CCCNC(=N)N)C(N)=O)[C@@H](C)O)[C@@H](C)O)[C@@H](C)O)C(C)C (Palmitoyl-VTLPLAATYTYR-NH2); < 4.52
5) CCCCCCCCCCCCCCCC(=O)N[C@H](C(=O)N[C@H](C(=O)N[C@@H](CC(C)C)C(=O)N1CCC[C@H]1C(=O)N[C@@H](CC(C)C)C(=O)N[C@@H](Cc1c[nH]c2ccccc12)C(=O)N[C@@H](C)C(=O)N[C@H](C(N)=O)[C@@H](C)O)[C@@H](C)O)C(C)C (Palmitoyl-VTLPLWAT-NH2); < 4.52
